assay: protein stability index of a GFP-peptide fusion (GPS, HEK-293T) (PSI 1-6); higher = more stable; settings: treatment: MLN4924 1 uM, 8 h; c terminus: a fixed tail appended;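 further: 24-mer peptide tiles fused after GFP, lentivirally expressed, FACS-sorted into six equal bins by GFP/DsRed ratio, decoded by Illumina sequencing, PSI is the read-weighted mean bin number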
assayReadout: protein stability index
Answers are plain numbers.

Would you please look over these solved cases?
# constructSequence, result
data = [
    ("CQECGKTFRVSSDLIKHQRIHTEE [ZNF75A]", 5.41),
    ("EGPSVVKRPAPRTAPRQEKHERTH [SPRY1]", 5.13),
    ("HDIDCQWVDITDVPPGDYLFQVVI [LOXL2]", 2.92),
    ("LHLGLPWRMLRPQLVNSSADNMLE [PPEF2]", 2.67),
    ("LNPSKLMEKEINGSKVTCRGLLEY [ATL3]", 2.96),
    ("DIEMSMRGDIFERIVHLQETCDLG [NLN]", 3.22),
]

Moving on to the next sequence.
I am curious: what protein stability index value has been reported for VELPMNSSNGNDNGNGKNGGLEHV [BNIP3L] ?
5.23

----------
I'd be grateful if you could share measured protein stability index for these entries.
assay: protein stability index of a GFP-peptide fusion (GPS, HEK-293T) (PSI 1-6); higher = more stable; settings: treatment: DMSO; c terminus: a fixed tail appended
Answers are plain numbers.

Would you please look over these solved cases?
# constructSequence, protein stability index
rows = [
    ("AMFAADPKKPIGGNIIAHASTTRL [RAD51]", 3.32),
    ("LICLKKNHEEEVNTLRSQLGDRLN [KRT34]", 3.33),
    ("VRKANRIKECLSKGTFSDVTFKLD [RHOBTB1]", 3.33),
    ("HTPLISKSQSLRSVRRSESWARPR [RASAL3]", 3.45),
    ("TIQGVPLSSYISINSDTGVLYALR [PCDHGA10]", 2.19),
    ("HVPLLAEPSFAQFSQEIGLASLGA [TPH1]", 2.93),
]

Moving on to the next sequence.
I am curious: what protein stability index value has been reported for GLPRSRDCRVDLGSEVYRMLREPA [PDLIM4] ?
3.08

----------
I'd be grateful if you could share measured protein stability index for these entries.
test: protein stability index of a GFP-peptide fusion (GPS, HEK-293T) (PSI 1-6); higher = more stable; conditions: treatment: MLN4924 1 uM, 8 h; c terminus: a fixed tail appended
One number for each entry.

Would you please look over these solved cases?
# constructSequence, protein stability index
measured = [
    ("IIELRRTVNALEIELQAQHSMRNS [KRT36]", 2.32),
    ("FSTDAFSSPPQGASPVPESSLTAD [SNAP91]", 4.25),
    ("HKSHRGMTPAEAEMHFLENAKKLS [EPB41L3]", 4.25),
    ("RKPVEAESVEGVVRILLEHYYKEN [INTS4]", 2.41),
]

Hi team, please reply with protein stability index for each item in this list.
1. AEAAPELDLFAMKPPETSVPVVTP [SNAP91]
2. LELVKYLLAAGANVHATTATGDTA [ANKRD17]
3. SLSSTATVLLVLEDEDPEEMPKSS [PCDHGC5]
4. EMQLSEVQIKTWFQNRRMKHKRQM [VENTX]

[4.98, 2.08, 4.08, 3.19]

Hi team, please reply with protein stability index for each item in this list.
1. NDRLYAIGGNHLKGFSHLDVMLVE [KLHL14]
2. GFSPIIGRFCGQQNPPVIKSSGRF [NETO1]

2.58
2.52

----------
I'd be grateful if you could share measured protein stability index for these entries.
experiment: protein stability index of a GFP-peptide fusion (GPS, HEK-293T) (PSI 1-6); higher = more stable; details: treatment: MLN4924 1 uM, 8 h; c terminus: a fixed tail appended

Would you please look over these solved cases?
# constructSequence, protein stability index
records = [
    ("TAFNFFKMAVSRHLTRGRKMAHVI [BRF1]", 2.33),
    ("DSSNPYPNFNFNISHQGDYAVLAA [AASDHPPT]", 3.42),
    ("GVITTTPTPPGQYFYPRGGGSGGG [JUNB]", 4.26),
    ("GEGNSSQNSRNKRAVQGPEETVTQ [TNFSF13B]", 5.47),
    ("MGGAVSAGEDNDDLIDNLKEAQYI [PCMTD1]", 4.64),
]

Hi team, please reply with protein stability index for each item in this list.
1. VTKSPEKRSSLPRPSSILPPRRGV [MAP2]
2. ISSIKEKYPSHSFIGEESVAAGEK [IMPA1]
3. SASSTGDLPKAKTRAADLLVNPLD [SRPK2]
4. FFIYGQVLYTDKTYAMGHLIQRKK [TNFSF13B]
5. EAFKKHSLDLLSKERELNGKLRHL [CCDC89]

4.72
4.81
4.99
2.12
3.38

----------
I'd be grateful if you could share measured protein stability index for these entries.
assay: protein stability index of a GFP-peptide fusion (GPS, HEK-293T) (PSI 1-6); higher = more stable; settings: treatment: DMSO; c terminus: a fixed tail appended
Give bare numbers.

Would you please look over these solved cases?
# constructSequence, assayReadout, result
rows = [
    ("SDPETKDFWLNMAALTEALQRQAE [FCHO1]", "protein stability index", 3.29),
    ("VSEFLKVAEQVGIDKGDIPDLTQA [SNAP91]", "protein stability index", 4.18),
    ("RDVKKTGFVFGTTLIMLLSLAAFS [RTN3]", "protein stability index", 3.03),
    ("TLKFYCLPDNYEIIDSSLEDITYV [USP39]", "protein stability index", 2.18),
    ("PHIYGARIKGVEVFCPLDPPPPYE [FAM189A2]", "protein stability index", 2.96),
]

Hi team, please reply with protein stability index for each item in this list.
1. EDNEREGTENGAIDAVPVDENLFT [ZC3H15]
2. SQQLQLIDEQDSYIQSRADTMQNI [STX5]
3. RYTQGTGGDEVDDSVSVNDIDLSL [ZC3H15]
4. LKYLHEQEILHRDLKLGNFFINEA [PLK2]

1: 5.54; 2: 4.59; 3: 5.27; 4: 1.85

Hi team, please reply with protein stability index for each item in this list.
1. PADSFESPLTLAACGGHVELAALL [ANKRD17]
2. KCKPSLPAEAEGAAQELENQMKER [TMEM120A]
3. HARNGLSLKEEHRAYDLLRAASEN [IKZF1]
4. ELVLPFQELQIDDNEYAYLKAIIF [HNF4A]

[2.87, 5.42, 3.73, 2.16]

----------
I'd be grateful if you could share measured protein stability index for these entries.
assay: protein stability index of a GFP-peptide fusion (GPS, HEK-293T) (PSI 1-6); higher = more stable; details: treatment: DMSO; c terminus: a fixed tail appended
Answers are plain numbers.

Would you please look over these solved cases?
# constructSequence, result
measured = [
    ("SIMSTGIVQGSSGAQGSGGGSTSA [CARM1]", 4.85),
    ("LRLEREEYVLLKALALANSDSVHI [ESRRA]", 2.51),
    ("SLQMSSAEMPHTETVSPLPSSMDL [NANOGP8]", 4.93),
    ("TLQPPEFLYSHGVPRTLSPHQYHS [TBX5]", 2.83),
    ("RASRTYELQNQLAACTRALESSEE [FSD1]", 5.01),
]

Hi team, please reply with protein stability index for each item in this list.
1. MQPPPPGPLGDCLRDWEDLQQDFQ [TMEM120A]
2. GTHPEDHQGHSDQHHHHHHHHHGR [RHOBTB2]
3. NMTQDEFKSLFGSIGDIESCKLVR [ELAVL3]
4. DAQGSEMVTCKSEFYHDEFKRWIY [GAN]
5. TIKSLSAELLKANEIIKKLQGDLK [SASS6]
6. SGYAGELGFRAFSGSGNRLDGKKK [UFD1]
7. RFLLYTNENPNNFQILLLSDPSTI [PNLIPRP1]
8. NLRLQRKLQREMERREALCRQLSE [CCDC6]

1. 4.86
2. 4.9
3. 3.28
4. 2.61
5. 2.16
6. 4.89
7. 2.94
8. 3.52

----------
assay: protein stability index of a GFP-peptide fusion (GPS, HEK-293T) (PSI 1-6); higher = more stable; details: treatment: MLN4924 1 uM, 8 h; c terminus: a fixed tail appended
assayReadout: protein stability index
Answers are plain numbers.

# constructSequence, protein stability index
measured = [
    ("GSKFRYSGRTQAQTRRASALIDRP [EPB41L3]", 3.44),
    ("HHHLHKTLREITDQEHNVAALKQA [TEKT4]", 4.52),
]

Hi team, please reply with protein stability index for each item in this list.
1. QELSEVLELLSAPELKSLAKTFHL [FAN1]
2. AGYYELAQVLLAMHANVEDRGIKG [ANKRD17]
3. GSRMMAVAALVVNFSQPVAGRPSL [NLN]
4. PGARGLWKPPDIKGKLMVCYETLP [SPAG8]
5. SKLASNGTPMGTFAPLWEVFRVSS [FCHO1]
6. YQDDPDLRFLLDQVQLGLRCCGAA [TSPAN10]

[2.25, 1.96, 2.56, 2.51, 2.26, 2.65]

Hi team, please reply with protein stability index for each item in this list.
1. GRRVNAKMPVYSGSRPACQLQVPT [ELOA2]
2. ARLQDFQELELVLMISENNFLFRN [ANKRD40]
3. SDGRQDSPAGELPKTVQQPTESEP [MATN2]

[3.49, 2.66, 5.57]

Hi team, please reply with protein stability index for each item in this list.
1. KKLRFHPKQLYFSARQGELQKVLL [EHMT1]
2. TRLQDCYVDSPALTNIWMARTCAK [C22orf31]

2.63
2.69

Values compiled from the supplement of paper PMC10567573.
